For each record, write down the corresponding cytotoxicity at 10 µM.
EXPERIMENT_DESCRIPTION: Toxicity liver stage against HepG2, at 10uM
Format: cell-based
Design: test concentration 10 uM, cell line HepG2-A16-CD81EGFP
MEASUREMENT_SETUP: human, HepG2-A16-CD81EGFP cells; read-out: INHIBITION
Record the result as number plus unit.

COMPOUND: Cc1nc[nH]c1CN1C[C@H]2CC[C@@H](C1)N(C(=O)CCNS(C)(=O)=O)C2
cytotoxicity at 10 µM: -10.4%
--
COMPOUND: CN(C)S(=O)(=O)N1CCC(c2nnc(C(F)(F)F)o2)CC1
cytotoxicity at 10 µM: 3.79%
--
COMPOUND: Cc1nc(C2CCCN(C(=O)C(C)(C)n3cc(Cl)cn3)C2)no1 (stereo unspecified)
cytotoxicity at 10 µM: -2.09%
--
COMPOUND: O=C(C1CCOCC1)N1CC[C@H](O)[C@@H]1Cc1cccnc1
cytotoxicity at 10 µM: -104%
--
COMPOUND: CC(C)CCN1CC2(CCCN(C(=O)CNC(=O)N(C)C)C2)CCC1=O (stereo unspecified)
cytotoxicity at 10 µM: 9.94%
--
COMPOUND: O=C1CN(C(=O)c2ccc(Cl)cc2)CC(O)CN1Cc1cccs1 (stereo unspecified)
cytotoxicity at 10 µM: 0.331%
--
COMPOUND: O=C(C1CC1)N1CC[C@H](O)[C@@H]1Cc1ccccc1
cytotoxicity at 10 µM: 1.93%
--
COMPOUND: O=C1OCCN1Cc1cc(C(F)(F)F)ccc1F
cytotoxicity at 10 µM: -5.52%

Would you be so kind as to report cytotoxicity at 10 µM for each listed record?
1. c1ccc(Oc2ncccc2CNCc2ccccn2)cc1
2. CC(=O)Nc1nc(C(=O)Nc2ccc(F)cc2)cs1
3. CC1CN(Cc2cccc(C#N)c2)CCN1c1ccc2nncn2n1 (stereo unspecified)

[A]
1. -8.04%
2. 6.47%
3. 9.56%
